Each recorded value in this set is attributed to patent US9434738B2.

Reported pEC50 values for the following compounds.
tested on: genotype 1b HCV replicon in Huh-7 cells; assay: HCV replicon luciferase assay, genotype 1b; assay type: cell-based; details: Hepatitis C virus, 72 h, Huh-7, Renilla luciferase, 3 days, read-out: EC50 1b (class)
pEC50: −log10 of the molar value.

>>> df
                                   compound  assayendpoint        result
0  CNC(=O)c1c(-c2ccc(F)cc2)oc2cc3c(cc12)-c1cc(C(=O)NC(C)(C)C)cc(c1)N(S(C)(=O)=O)CCCCCN3S(C)(=O)=O [Compound 1002]          pEC50  6.00 to 7.00

Q) Item CNC(=O)c1c(-c2ccc(F)cc2)oc2cc3c(cc12)-c1cc(cc(C(=O)NC(C)(C)C)c1)NC(=S)NCCCCCCCCNC(=S)N3 [Compound 1058] with genotype 1b HCV replicon in Huh-7 cells - pEC50?
A) < 6.00

Q) Item CNC(=O)c1c(-c2ccc(F)cc2)oc2cc3c(cc12)-c1cc(cc(C(=O)NC(C)(C)C)c1)NC(=O)OCCOC(=O)N3 [Compound 1054] with genotype 1b HCV replicon in Huh-7 cells - pEC50?
A) < 6.00

Q) Item CNC(=O)c1c(-c2ccc(F)cc2)oc2cc3c(cc12)-c1cc(C(=O)NC(C)(C)C)cc(c1)N(S(C)(=O)=O)CCCCCCCN3S(C)(=O)=O [Compound 1004] with genotype 1b HCV replicon in Huh-7 cells - pEC50?
A) > 7.00

Q) Item CNC(=O)c1c(-c2ccc(F)cc2)oc2cc3c(cc12)-c1cc(C(=O)NC(C)(C)C)cc(c1)N(S(C)(=O)=O)CCCCCCCCN3S(C)(=O)=O [Compound 1005] with genotype 1b HCV replicon in Huh-7 cells - pEC50?
A) 6.00 to 7.00

Q) Item CNC(=O)c1c(-c2ccc(F)cc2)oc2cc3c(cc12)-c1cc(C(=O)NC(C)(C)C)cc(c1)N(S(C)(=O)=O)CCCCCCN3S(C)(=O)=O [Compound 1003] with genotype 1b HCV replicon in Huh-7 cells - pEC50?
A) 6.00 to 7.00
